Hey, just so you know, these numbers are from patent US10570117B2.

test: Solubility in gastric juice or intestinal juice model fluid (precipitation method using DMSO)
Assay type: physicochemical
conditionNotes: pH 6.8, kinetic from dmso stock, 2nd fluid for Disintegration Test of Japanese Pharmacopoeia (pH: 6.8), room temperature, read-out: Solubility (μg/mL) 2nd fluid
# label = fulfilled if solubility at 24 h >= 2 µg/mL else not fulfilled

*Q* Quick check, solubility at 24 h >= 2 µg/mL? `COc1cc(-c2[nH]c(C(C)C)nc2Cl)ccc1OCc1ncc(C(F)(F)F)cc1F`
*A* not fulfilled

*Q* Is it the case that `COc1cc(OCc2ccc(C(F)(F)F)cn2)ccc1-c1nc(-c2ccc(F)nc2)[nH]c1Br` has solubility at 24 h reaching or exceeding 2 µg/mL?
*A* not fulfilled

*Q* Decide: is the reported value of solubility at 24 h for `COc1cc(OCc2ccc(C(F)(F)F)nc2)ccc1-c1c[nH]c(-c2ccc(F)nc2)n1` equal to or greater than 2 µg/mL?
*A* not fulfilled

*Q* Is reported solubility at 24 h greater than or equal to 2 µg/mL here: `COc1cc(OCc2ccc(C(F)(F)F)cn2)ccc1-c1c(C)nc(-c2ccc(Cl)nc2)n1C`
*A* fulfilled

*Q* Answer whether solubility at 24 h of `COc1cc(OCc2cccc(C#N)n2)ccc1-c1c[nH]c(-c2ccc(Cl)nc2)n1` is greater than or equal to 2 µg/mL.
*A* not fulfilled

New cases:
*Q* Hi, just wondering whether `COc1cc(OCc2ccc(S(=O)(=O)OC)cn2)ccc1-c1c[nH]c(-c2ccc(Cl)nc2)n1` shows solubility at 24 h of 2 µg/mL or higher.
*A* not fulfilled

*Q* Assess whether reported solubility at 24 h for `Cc1cc(OCc2ncc(C(F)(F)F)cc2F)ccc1-c1[nH]c(-c2ccc(F)nc2)nc1Cl` sits at 2 µg/mL or higher.
*A* fulfilled

*Q* Check if solubility at 24 h >= 2 µg/mL (inclusive). Item: `COc1cc(OCc2ccc(C(F)(F)F)nc2)ccc1-c1c(C)nc(-c2ccc(Cl)nc2)n1CC1CC1`
*A* fulfilled
